# Test system: RPMI-8226 leukemia
# ASSAY METHOD TEXT: NCI-60 one-dose screen, 48 h
# TEST CONTEXT: 10 µM
About 83,000 compounds went through this panel and 20% of them were active in at least one assay; those are over-represented in the sample as a whole. Active and inactive are the calls of the source. The calls were made as follows: active = growth percent below 10; inactive = the rest.
Give your call using only these classes: y for active, n for inactive

q: Each compound tested received a call. Report the one for NC1=NC(c2ccc(Cl)cc2)C2=C(N1)/C(=C/c1ccc(Cl)cc1)CCC2 (centres undefined) .
a: y

q: Kindly provide the recorded test outcome for the following compound: "CCN(CC)CCOc1ccc2c(c1O)C(=O)c1ccccc1C2=O"
a: n

q: What classification did "C(=N\Nc1ncnc2sc3c(c12)CCNC3)/c1cccc2ccccc12" end up with in this test?
a: y

q: Hi, do you know how "O=C(N/N=C/c1ccc(Cl)cc1)c1ccc(Cc2n[nH]c(=O)c3cccnc23)cc1" came out in this test?
a: n

* * *

# Tested on: NCI-H460 lung
# ASSAY METHOD TEXT: NCI-60 one-dose screen, 48 h
# TEST CONTEXT: 10 µM
Compounds without any hit were thinned out: in the full panel of roughly 83,000, 20% have a hit. The source made the active and inactive calls. Rule for the calls: active = growth percent below 10; inactive = the rest.
Respond only with the outcome that fits, drawn from yes (1) (active), no (0) (inactive)

Worked examples, 10 compounds total:
INSERT INTO results (compound, category) VALUES
  ('OCC1OC2C(NC(=S)N2c2ccccc2)C(O)C1O (stereo not given)', 'no (0)'),
  ('COc1ccc(-c2n[nH]nc2-c2cc(OC)c3c(c2OC)OCO3)cc1', 'no (0)'),
  ('CCOC(=O)c1sc2ncnc(Nc3ccc4c(cnn4C(=O)Nc4ccc(C)c(Cl)c4)c3)c2c1C', 'no (0)'),
  ('Cc1cc(=O)n2nnc3cc(Cl)c(Cl)cc3n12', 'no (0)'),
  ('CCOC(=O)c1sc2ncnc(Nc3ccc4c(cnn4C(=O)Nc4ccccc4)c3)c2c1C', 'no (0)'),
  ('CCN1C(=O)CC(SC2CC(=O)N(CC)C2=O)C1=O (stereo not given)', 'no (0)'),
  ('COc1cc2cc(Oc3ccc(NC(=O)Nc4ccc(Cl)c(Cl)c4)cc3)c(C)nc2cc1OC', 'yes (1)'),
  ('CCN1CC(CCN2CCOCC2)C(C(c2ccccc2)c2ccccc2)C1=O (stereo not given)', 'no (0)'),
  ('CC(=O)[C@@]12O[C@](C)(c3ccccc3)O[C@@H]1CC1C3CCC4=CC(=O)CC[C@]4(C)C3CC[C@@]12C (stereo not given in full)', 'no (0)'),
  ('COC(=O)C1(O)NC(=C(C#N)C#N)C(C#N)=C1C(=O)c1ccc(OC)c(OC)c1 (stereo not given)', 'no (0)');

q: How was "Cc1nc2n(c(=O)c1CCN1CCC(c3noc4cc(F)ccc34)CC1)CCC[C@@H]2O" classified in this test?
a: no (0)

* * *

# System: HOP-92 NSCLC
# ASSAY METHOD TEXT: NCI-60 one-dose screen, 48 h
# TEST CONTEXT: 10 µM
# Description: Growth inhibition of the HOP-92 human Non-Small Cell Lung tumor cell line is measured as a screen for anti-cancer activity. Cells are grown in 96 well plates and exposed to the test compound for 48 hours. Compounds are tested at a single concentration, which is 10^-5 M for most compounds. The reported endpoint is percent growth (GI% or GIPRCNT), where numbers from 0 - 100% represent growth inhibition, and numbers from -100% - 0 represent cell death. […]
The panel holds about 83,000 compounds, 20% with a hit somewhere; the sample as a whole holds those more often. Activity calls are given as the source filed them. The calls were made as follows: active = growth percent below 10; inactive = the rest.
Log the outcome using a class from active, inactive

Worked examples follow.
INSERT INTO results (compound, category) VALUES
  ('CN(C)CCCSc1ccccc1NC1=C(Cl)C(=O)C(Nc2ccccc2SCCCN(C)C)=C(Cl)C1=O', 'inactive'),
  ('Cc1n[nH]c(C)c1N=Nc1cccc2c1C(=O)c1ccccc1C2=O', 'inactive'),
  ('CCN(CC)CCCC(C)Nc1c2ccc(Cl)cc2nc2ccc(OC)cc12 (centres undefined)', 'inactive'),
  ('Cc1ccc(C(C)C)c(O)c1NC(=O)OC(C)C', 'inactive'),
  ('CC(C)(C)OC(=O)CN1CCc2c(sc3ncnc(N/N=C/c4cccc5ccccc45)c23)C1', 'inactive');

q: Identify the outcome logged in this assay for the compound shown: COc1cc(/C=C2\CCCC3=C2NC(N)=NC3c2cc(OC)c(OC)c(OC)c2)cc(OC)c1OC (centres undefined)
a: active

q: Outcome logged for COc1ccc(/C=C2\CCCC3=C2NC(N)=NC3c2ccc(OC)cc2)cc1 (centres undefined) in this assay:
a: inactive

q: Per the records of this test, what outcome belongs to "Cc1cc(C)nc(NS(=O)(=O)c2ccc(Nc3nc4nc(NCc5ccccc5)nc(-c5ccc(O)cc5)c4c(=O)[nH]3)cc2)n1" ?
a: active

q: Dear colleague, could you share the recorded outcome for "CC(C)CCN(CCC(C)C)CC(=O)Nc1ccc(S(=O)(=O)c2ccc(NC(=O)CN(CCC(C)C)CCC(C)C)cc2)cc1" when you have a moment?
a: inactive

q: Please state the recorded outcome for this compound: "CCOC(=O)Cn1c(=O)c2sc3ncccc3c2n2nnc(-c3ccccc3)c12"
a: inactive

q: Dear all, I need the recorded test outcome for "CN(C)CCCOc1ccc(OCCCN(C)C)c2c1C(=O)c1ccccc1C2=O" , thank you.
a: active

q: What did this assay record as the result for "CCOC(=O)c1cc(C(=O)c2ccc(OC)c(OC)c2)n2ccncc12" ?
a: inactive

q: Hi team, can someone confirm the assay call for "CCN(CC)CCN1c2nc3ccccc3cc2Sc2cc3ccccc3nc21" ?
a: active

q: Which outcome was entered for the compound "O=C(Nc1ccc2c(O)cc(S(=O)(=O)O)cc2c1)c1ccc([N+](=O)[O-])cc1" in this test?
a: inactive

* * *

# System: PC-3 prostate
# ASSAY METHOD TEXT: NCI-60 one-dose screen, 48 h (100 = growth as untreated, 0 = no growth, -100 = all killed)
# TEST CONTEXT: 10 µM
About 83,000 compounds went through this panel and 20% of them were active in at least one assay; those are over-represented in the sample as a whole.
Label Y when growth is strictly below 80%; at or above that, label N.

// below: answered compounds
INSERT INTO measurements (compound, category) VALUES
  ('COc1cc(N)c2ncccc2c1SC', 'N'),
  ('Cc1ccc(S(=O)(=O)N(C)CCCCCC(=O)O)cc1', 'N'),
  ('COc1ccc(/C(C#N)=C/c2ccccc2OC)cc1', 'Y'),
  ('Cc1ccc(/C=C/C(=O)C(=O)/C=C/c2ccc(C)cc2)cc1', 'N'),
  ('O=c1[nH]c(=O)n(C2C[C@H](O)[C@@H](CO)O2)cc1C(F)(F)F (stereo partly drawn)', 'N'),
  ('COc1cc(C(=O)N2CCN(c3cc4c(cc3F)c(=O)c(C(=O)NO)cn4C3CC3)CC2)cc(OC)c1OC', 'N'),
  ('O=C1c2ccccc2C(=O)c2c1ccc1c(=O)n(-c3ccccc3C(F)(F)F)nnc21', 'Y'),
  ('COc1cc(-c2nc3ccccc3o2)cc(CN2CCCCC2)c1O', 'Y');

q: is_below(growth, 80%) for CCCN(CCC)C(=O)[C@H](CC)[C@@H]1CC[C@@H](C)[C@@H]([C@H](C)[C@@H](O)[C@@H](C)C(=O)[C@H](CC)C2O[C@]3(C=C[C@@H](O)[C@]4(CC[C@@](C)([C@H]5CC[C@](O)(CC)[C@H](C)O5)O4)O3)[C@H](C)C[C@@H]2C)O1 (stereo partly drawn) ?
a: Y

q: Below 80% on growth? Entry NC(CSC(c1ccccc1)(c1ccccc1)c1cccc2ccccc12)C(=O)O (stereo not drawn)
a: N

q: In the record for "Cc1ccc(C(C)C)c(O)c1NC(=O)OC(C)C" , is growth less than 80%?
a: N

q: # check: growth < 80% for "COc1cc(-c2nn(-c3ccc(NC(=O)NCCCNC(=O)c4ccccc4)cc3)cc2-c2ccncc2)ccc1Cl"
a: Y

* * *

# Tested on: A498 renal
# ASSAY METHOD TEXT: NCI-60 one-dose screen, 48 h
# TEST CONTEXT: 10 µM
Compounds without any hit were thinned out: in the full panel of roughly 83,000, 20% have a hit. The source made the active and inactive calls. How the source made its calls: active means growth percent below 10; inactive means the rest.
Your answer must be one of the following: active, inactive

INSERT INTO results (compound, category) VALUES
  ('Cc1c(O)c(=O)ccn1C1CCC(CC2CCC(n3ccc(=O)c(O)c3C)CC2)CC1 (configuration not stated)', 'inactive'),
  ('Cc1nn(-c2ccc(-c3ccc(OC(F)(F)F)cc3)cc2)c2nc(Cc3ccccc3)nc(N)c12', 'inactive'),
  ('CC1C(=NC(=O)c2cnccn2)C(C)C(c2ccc(Cl)cc2)NC1c1ccncc1 (configuration not stated)', 'inactive'),
  ('C#CCOc1c(OC)cc(C(=O)/C(C)=C/c2cccc(N=[N+]=[N-])c2)cc1OC', 'inactive'),
  ('COc1cc2cc(Oc3ccc(NC(=O)c4cc(C(F)(F)F)cc(C(F)(F)F)c4)cc3)c(C)nc2cc1OC', 'inactive'),
  ('O=C1Cc2cc(CCN3CCN(c4nsc5ccccc45)CC3)c(Cl)cc2N1', 'inactive'),
  ('Oc1ccc(-c2[nH]c3ccccc3c2-c2nc3ccccc3o2)cc1', 'inactive'),
  ('CCC(C)[C@H](NC(C)=O)C(=O)N[C@@H](CCCNC(=N)N)C(=O)N[C@@H](CCCCN)C(=O)N[C@@H](CC1CCC(O)CC1)C(=O)NC(C(=O)N[C@@H](CCSC)C(=O)N[C@@H](CCCNC(=N)N)C(=O)N[C@@]1(C)CCC/C=C\CCC[C@@](C)(C(=O)NC(C(=O)N[C@@H](CCC(=O)O)C(=O)N[C@@H](CC(C)C)C(=O)N[C@H](C(=O)N[C@@H](CCC(=O)O)C(N)=O)C(C)C)[C@@H](C)O)NC(=O)[C@H](CCC(N)=O)NC(=O)[C@H](CC(C)C)NC(=O)[C@H](CC(C)C)NC1=O)[C@@H](C)O (some centres not stated)', 'inactive');

q: I would be grateful if you could indicate the recorded call for "CC(C)(C)c1ccc(S(=O)(=O)Oc2ccc(NC(=O)C3CCCCC3)cc2)cc1" .
a: inactive

q: Assay outcome for CCN(CC)CCCC(Nc1c2ccc(Cl)cc2nc2ccc(OC)cc12)c1ccc(F)cc1 (configuration not stated) : what was it?
a: inactive

q: State the result this test recorded for "Cc1[nH]c2ccccc2c1/C=N/Nc1ncnc2sc3c(c12)CCN(CC(=O)OC(C)(C)C)C3" .
a: inactive
